System: Ps. aeruginosa IFO3445
Experiment: Antibacterial activity (MIC), agar dilution
Assay type: cell-based
Details: Pseudomonas aeruginosa; Ps. aeruginosa IFO3445; 10^6 cells per ml; 37° C., 20 hours; read-out: MIC
# label = 1 (yes) if MIC < 20 µg/mL else 0 (no)

Please review the entries below; each comes with its answer.
{"molecule": "Cn1ccc2cc(-c3cc(=O)c(C(=O)O)cn3-c3ccc(O)cc3)ccc21", "class name": "1 (yes)"}
{"molecule": "COc1ccc(-c2cc(=O)c(C(=O)O)cn2-c2ccc(F)cc2)cc1", "class name": "0 (no)"}
{"molecule": "Cc1cc(O)ccc1-n1cc(C(=O)O)c(=O)cc1-c1ccc2c(ccn2C)c1", "class name": "1 (yes)"}
{"molecule": "Cc1ccc(-c2cc(=O)c(C(=O)O)cn2-c2ccc(F)cc2)s1", "class name": "0 (no)"}
{"molecule": "Cc1cc(O)ccc1-n1cc(C(=O)O)c(=O)cc1C1CCCC1", "class name": "1 (yes)"}
{"molecule": "Cc1cc(O)ccc1-n1cc(C(=O)O)c(=O)cc1C1CC2C=CC1C2 (centres unmarked)", "class name": "0 (no)"}

Could you please tell me whether MIC recorded for Cc1ccc(-c2ccc(-c3cc(=O)c(C(=O)O)cn3-c3ccc(O)cc3)cc2)s1 is less than 20 µg/mL?
1 (yes)

Could you please tell me whether MIC recorded for CN(C)c1ccc(-c2cc(=O)c(C(=O)O)cn2-c2ccc(OS(=O)(=O)O)cc2)cc1 is less than 20 µg/mL?
0 (no)

====

System: E. coli TK-111
Experiment: Antibacterial activity (MIC), agar dilution
Assay type: cell-based
Settings: Escherichia coli, TK111, 20 h, E. coli TK-111; 10^6 cells per ml; 37° C., 20 hours; read-out: MIC
Parameter: MIC. Scope: all listed entries.

{"compound": "O=C(O)c1cn(-c2ccc(O)cc2)c(-c2ccc(-n3cccn3)cc2)cc1=O", "MIC": "≤ 0.05 µg/mL"}
{"compound": "O=C(O)c1cn(-c2ccc(O)cc2)c(-c2ccc(-c3cccs3)cc2)cc1=O", "MIC": "≤ 0.05 µg/mL"}

Lab note: next compound to report on.
Would you mind telling me what MIC value was observed for Cc1cc(O)ccc1-n1cc(C(=O)O)c(=O)cc1-c1ccc(-c2cccs2)cc1 ?
≤ 0.05 µg/mL

====

Tested on: E. coli NIHJ JC-2
Assay: Antibacterial activity (MIC), agar dilution
Format: cell-based
Conditions: Escherichia coli, NIHJJC2, 20 h, E. coli NIHJ JC-2; 10^6 cells per ml; 37° C., 20 hours; read-out: MIC
measured parameter: MIC

{"molecule": "Cc1cc(F)ccc1-n1cc(C(=O)O)c(=O)cc1C1CC=CCC1 (centres unmarked)", "target of assay": "E. coli NIHJ JC-2", "measured parameter": "MIC", "obs value": "6.25 µg/mL"}
{"molecule": "Cn1ccc2cc(-c3cc(=O)c(C(=O)O)cn3-c3ccc(O)cc3F)ccc21", "target of assay": "E. coli NIHJ JC-2", "measured parameter": "MIC", "obs value": "≤ 0.05 µg/mL"}

Would you mind telling me what MIC value was observed for CC(=O)Oc1ccc(-n2cc(C(=O)OCCN(C)C)c(=O)cc2-c2ccc(N(C)C)cc2)cc1 [drawing 37] ?
0.39 µg/mL

Would you mind telling me what MIC value was observed for Cc1cc(O)ccc1-n1cc(C(=O)O)c(=O)cc1-c1ccc(-c2cccs2)cc1 ?
0.1 µg/mL

Would you mind telling me what MIC value was observed for COc1ccc(-c2cc(=O)c(C(=O)O)cn2-c2ccc(O)cc2C)cc1F ?
0.39 µg/mL
